FYI, the data here is from ChEMBL document CHEMBL4387708.

# Test system: Trypanosoma brucei
# Assay Overview: Growth inhibition of Trypanosoma brucei bloodstream forms at 10 uM measured after 72 hrs by resazurin-based fluorescence assay relative to control
# Format: organism-based
# Condition Info: Trypanosoma brucei, read-out: GI
// inhibition at 10 µM lookup, one value per entry

Examples with answers:
Nc1nc2ccc(OCc3ccc(Cl)c(Cl)c3)cc2s1	42 to 55%
Nc1nc2ccc(SCc3ccc(Cl)c(Cl)c3)cc2s1	41 to 46%
COC(=O)C1CCN(C(=O)c2ccc(CSc3ccc4nc(N)sc4c3)cc2)CC1	42 to 53%

So what's the measured inhibition at 10 µM for this one? N#Cc1ccc(COc2ccc3nc(N)sc3c2)cc1 21 to 27%

So what's the measured inhibition at 10 µM for this one? N#Cc1ccc(CSc2ccc3nc(N)sc3c2)cc1 29 to 35%
